This collection of values is drawn from ChEMBL document CHEMBL4371049.

System: BGC-823
Assay: Antiproliferative activity against human BGC823 cells after 48 hrs by MTT assay
Format: functional, cell-based
Details: BGC-823, 48 h
pIC50: −log10 of the molar value.
// pIC50 lookup, one value per entry

The examples below pair each entry with its known result.
# cpdSmiles, measured
measured = [
    ("COC(C)(C)CCC[C@@](C)(O)[C@H]1CC[C@]2(C)[C@@H]1[C@H](O)C[C@@H]1[C@@]3(C)CC[C@H](O)C(C)(C)[C@@H]3CC[C@]12C", 4.44),
    ("COC(C)(C)CCC[C@@](C)(O)[C@H]1CC[C@]2(C)[C@@H]1[C@H](OC(=O)c1cc(I)ccc1Cl)C[C@@H]1[C@@]3(C)CC[C@H](OC(=O)c4cc(I)ccc4Cl)C(C)(C)[C@@H]3CC[C@]12C", "< 4.30"),
    ("COC(C)(C)CCC[C@@](C)(O)[C@H]1CC[C@]2(C)[C@@H]1[C@H](OC(=O)c1ccc([N+](=O)[O-])cc1)C[C@@H]1[C@@]3(C)CC[C@H](OC(=O)c4ccc([N+](=O)[O-])cc4)C(C)(C)[C@@H]3CC[C@]12C", "< 4.30"),
    ("COC(C)(C)CCC[C@@](C)(O)[C@H]1CC[C@]2(C)[C@@H]1[C@H](O)C[C@@H]1[C@@]3(C)CC[C@H](OC(=O)c4cc(I)ccc4Cl)C(C)(C)[C@@H]3CC[C@]12C", "< 4.30"),
    ("COC(C)(C)CCC[C@@](C)(O)[C@H]1CC[C@]2(C)[C@@H]1[C@H](OC(=O)c1ccccc1C)C[C@@H]1[C@@]3(C)CC[C@H](O)C(C)(C)[C@@H]3CC[C@]12C", "< 4.30"),
    ("COC(C)(C)CCC[C@@](C)(O)[C@H]1CC[C@]2(C)[C@@H]1[C@H](OC(=O)c1ccccc1)C[C@@H]1[C@@]3(C)CC[C@H](OC(=O)c4ccccc4)C(C)(C)[C@@H]3CC[C@]12C", "< 4.30"),
    ("COC(C)(C)CCC[C@@](C)(O)[C@H]1CC[C@]2(C)[C@@H]1[C@H](O)C[C@@H]1[C@@]3(C)CC[C@H](OC(=O)c4ccc(F)cc4)C(C)(C)[C@@H]3CC[C@]12C", 4.90),
    ("COC(C)(C)CCC[C@@](C)(O)[C@H]1CC[C@]2(C)[C@@H]1[C@H](OC(=O)c1ccc(Br)cc1)C[C@@H]1[C@@]3(C)CC[C@H](OC(=O)c4ccc(Br)cc4)C(C)(C)[C@@H]3CC[C@]12C", "< 4.30"),
]

Consider now this further compound.
Task item: // fetch pIC50 for COC(C)(C)CCC[C@@](C)(O)[C@H]1CC[C@]2(C)[C@@H]1[C@H](O)C[C@@H]1[C@@]3(C)CC[C@H](OC(=O)c4ccccc4C)C(C)(C)[C@@H]3CC[C@]12C ; system: BGC-823
Reply: < 4.30

---

System: BGC-823
Experiment: Antiproliferative activity against human BGC823 cells after 48 hrs by MTT assay
Assay type: functional, cell-based
Settings: BGC-823, 48 h
Label key: condition met means IC50 under 20 µM; condition not met means IC50 of 20 µM or more.

Consider the worked cases shown below.
# cpdSmiles, labelClass
rows = [
    ("COC(C)(C)CCC[C@@](C)(O)[C@H]1CC[C@]2(C)[C@@H]1[C@H](O)C[C@@H]1[C@@]3(C)CC[C@H](OC(=O)c4ccc([N+](=O)[O-])cc4)C(C)(C)[C@@H]3CC[C@]12C", "condition met"),
    ("COC(C)(C)CCC[C@@](C)(O)[C@H]1CC[C@]2(C)[C@@H]1[C@H](O)C[C@@H]1[C@@]3(C)CC[C@H](OC(=O)c4ccc(Cl)cc4)C(C)(C)[C@@H]3CC[C@]12C", "condition not met"),
    ("COC(C)(C)CCC[C@@](C)(O)[C@H]1CC[C@]2(C)[C@@H]1[C@H](O)C[C@@H]1[C@@]3(C)CC[C@H](OC(=O)c4cc(F)ccc4Br)C(C)(C)[C@@H]3CC[C@]12C", "condition not met"),
]

Task item: Confirm or reject: IC50 of COC(C)(C)CCC[C@@](C)(O)[C@H]1CC[C@]2(C)[C@@H]1[C@H](O)C[C@@H]1[C@@]3(C)CC[C@H](OC(=O)/C=C/c4ccc(F)cc4)C(C)(C)[C@@H]3CC[C@]12C lies strictly below 20 µM
Reply: condition met

Task item: Record COC(C)(C)CCC[C@@](C)(O)[C@H]1CC[C@]2(C)[C@@H]1[C@H](O)C[C@@H]1[C@@]3(C)CC[C@H](OC(=O)/C=C/c4ccccc4)C(C)(C)[C@@H]3CC[C@]12C : is its IC50 strictly below 20 µM?
Reply: condition not met

Task item: Lab note: IC50 threshold 20 µM. Does this compound come in strictly under it? COC(C)(C)CCC[C@@](C)(O)[C@H]1CC[C@]2(C)[C@@H]1[C@H](O)C[C@@H]1[C@@]3(C)CC[C@H](OC(=O)c4ccccc4)C(C)(C)[C@@H]3CC[C@]12C
Reply: condition not met

Task item: Given COC(C)(C)CCC[C@@](C)(O)[C@H]1CC[C@]2(C)[C@@H]1[C@H](OC(=O)c1ccc([N+](=O)[O-])cc1)C[C@@H]1[C@@]3(C)CC[C@H](O)C(C)(C)[C@@H]3CC[C@]12C , is recorded IC50 strictly lower than 20 µM?
Reply: condition not met

Task item: Lab note: IC50 threshold 20 µM. Does this compound come in strictly under it? COC(C)(C)CCC[C@@](C)(O)[C@H]1CC[C@]2(C)[C@@H]1[C@H](OC(=O)c1cc([N+](=O)[O-])cc([N+](=O)[O-])c1)C[C@@H]1[C@@]3(C)CC[C@H](O)C(C)(C)[C@@H]3CC[C@]12C
Reply: condition not met

Task item: For this compound, is IC50 lower than 20 µM? COC(C)(C)CCC[C@@](C)(O)[C@H]1CC[C@]2(C)[C@@H]1[C@H](O)C[C@@H]1[C@@]3(C)CC[C@H](OC(=O)c4ccccc4[N+](=O)[O-])C(C)(C)[C@@H]3CC[C@]12C
Reply: condition met
